Molecular target: T1, orthogonal hCD122 receptor (hoRb), hCD122 with H133D and Y134F (human, UniProt P14784 27-550); further: reference of the scale not given here
T1 sequence: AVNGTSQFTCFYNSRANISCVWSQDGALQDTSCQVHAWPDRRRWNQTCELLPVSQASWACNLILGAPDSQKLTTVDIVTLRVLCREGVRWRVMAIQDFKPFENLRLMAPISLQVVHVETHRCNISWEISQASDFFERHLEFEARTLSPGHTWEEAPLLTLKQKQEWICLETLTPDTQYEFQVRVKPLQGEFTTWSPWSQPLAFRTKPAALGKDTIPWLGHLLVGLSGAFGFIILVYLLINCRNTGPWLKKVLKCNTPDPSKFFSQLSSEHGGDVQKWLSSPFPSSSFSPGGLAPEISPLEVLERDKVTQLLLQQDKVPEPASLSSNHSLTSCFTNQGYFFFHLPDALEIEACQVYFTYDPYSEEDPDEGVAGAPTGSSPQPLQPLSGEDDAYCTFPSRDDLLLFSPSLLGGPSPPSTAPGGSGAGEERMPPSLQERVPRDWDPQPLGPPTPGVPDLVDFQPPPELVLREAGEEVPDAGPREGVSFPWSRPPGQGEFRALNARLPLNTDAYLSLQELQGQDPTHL
Assay: cell-based or functional assay
measureName: Relative Proliferation Fold Change NKL 1:50 (fold)

binder	val
SQVLNA (ligand) APTSSSTKKTQLQLSQLLVLLNAILNGINNYKNPKLTRMLTFKFYMPKKATELKHLQCLEEELKPLEEVLNLAQSKNFHLRPRDLISNINVIVLELKGSETTFMCEYADETATIVEFLNRWITFCQSIISTLT	1.4

[I] C125S, SQVLKA (ligand) APTSSSTKKTQLQLSQLLVLLKAILNGINNYKNPKLTRMLTFKFYMPKKATELKHLQCLEEELKPLEEVLNLAQSKNFHLRPRDLISNINVIVLELKGSETTFMCEYADETATIVEFLNRWITFSQSIISTLT
[II] L18T, SQVLKA (ligand) APTSSSTKKTQLQLSQLTVLLKAILNGINNYKNPKLTRMLTFKFYMPKKATELKHLQCLEEELKPLEEVLNLAQSKNFHLRPRDLISNINVIVLELKGSETTFMCEYADETATIVEFLNRWITFCQSIISTLT
[III] T51I, SQVLKA (ligand) APTSSSTKKTQLQLSQLLVLLKAILNGINNYKNPKLTRMLTFKFYMPKKAIELKHLQCLEEELKPLEEVLNLAQSKNFHLRPRDLISNINVIVLELKGSETTFMCEYADETATIVEFLNRWITFCQSIISTLT
Exercise: Task for the reader: rank each entry by its Relative Proliferation Fold Change NKL 1:50, from the minimum upward. The labels, placed in the requested order, form the answer.
Solution: II, III, I
(II: 0.87 fold, III: 1.4 fold, I: 2.26 fold)
